# assayedTarget: CD45 (Homo sapiens, UniProt P08575)
# Sequence (P08575 653-912 limits assumed): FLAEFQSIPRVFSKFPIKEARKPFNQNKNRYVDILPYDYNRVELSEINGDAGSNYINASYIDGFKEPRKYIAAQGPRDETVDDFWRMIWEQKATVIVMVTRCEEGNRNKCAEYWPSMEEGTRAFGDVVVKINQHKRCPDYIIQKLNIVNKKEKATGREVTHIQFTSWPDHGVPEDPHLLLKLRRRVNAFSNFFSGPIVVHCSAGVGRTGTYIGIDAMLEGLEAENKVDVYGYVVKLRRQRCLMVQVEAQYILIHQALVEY
parameter: pIC50
Worth noting: pIC50 values are minus log10 of concentrations stated in mol/L.

### Prompt Provide value of pIC50 for this record tested with CD45 (Homo sapiens, UniProt P08575): CC(C)(C)C(=O)Nc1ccc2c(c1)C(=O)C(=O)c1ccccc1-2
### Response 6.07

###

# assayedTarget: Laforin (Homo sapiens, UniProt O95278)
# Sequence (O95278 whole entry, species assumed): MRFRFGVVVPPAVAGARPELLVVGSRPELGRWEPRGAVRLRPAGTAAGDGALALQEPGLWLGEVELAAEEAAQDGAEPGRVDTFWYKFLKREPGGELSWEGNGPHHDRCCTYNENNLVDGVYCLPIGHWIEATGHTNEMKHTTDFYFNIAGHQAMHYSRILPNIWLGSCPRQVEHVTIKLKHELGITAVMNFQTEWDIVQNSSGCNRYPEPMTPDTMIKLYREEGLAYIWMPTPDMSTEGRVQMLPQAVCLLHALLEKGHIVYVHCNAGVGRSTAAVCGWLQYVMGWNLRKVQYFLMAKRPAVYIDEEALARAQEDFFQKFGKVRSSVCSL
pIC50: −log10 of the molar value.
parameter: pIC50

### Prompt Could you tell me which pIC50 is on file for CC(C)(C)C(=O)Nc1ccc2c(c1)C(=O)C(=O)c1ccccc1-2 [PTP inhibitor XIX] ?
### Response < 4.00
